test: In vitro cytotoxicity (2 hour exposure); type: cell-based; settings: chinese hamster, v-79-753 b cells, at 2mM, read-out: In-vitro Cytotoxicity in cells: inhibition
Observable: cytotoxicity at 2 h, 2000 µM
State the value, then name its unit.

Reported cytotoxicity at 2 h, 2000 µM, compound C[N+]1(CCn2ccnc2[N+](=O)[O-])CCCCC1 [E] : ____
30%

###

test: in vivo; conditions: mouse, in vivo, ip
What LD50 at 24 h was measured for each of the following?

Please review the entries below; each comes with its answer.
Structure notation	Observable	Meas value
O=[N+]([O-])c1nccn1CC[N+]1([O-])CCCCC1	LD50 at 24 h	> 5000 mg/kg
O=[N+]([O-])c1nccn1CCN1CCCCC1	LD50 at 24 h	800 mg/kg
C[N+]1(CCn2ccnc2[N+](=O)[O-])CCCCC1	LD50 at 24 h	250 mg/kg

Reported LD50 at 24 h, molecule O=[N+]([O-])c1nc2ccccc2n1CC[N+]1([O-])CCCCC1 : ____
~5000 mg/kg

###

test system: mice of strain BDF1; experiment: in vivo; settings: intraperitoneal, 24 hours observation
Observable: Convulsions in mice at LD50 doses

Compound	Meas value
C[N+]1(CCn2ccnc2[N+](=O)[O-])CCCCC1 [E]	yes
O=[N+]([O-])c1nccn1CC[N+]1([O-])CCCCC1 [C]	None
O=[N+]([O-])c1nccn1CCN1CCCCC1 [D, 1-piperidinoethyl-2-nitroimidazole]	yes
O=[N+]([O-])c1nc2ccccc2n1CCN1CCCCC1 [B, 1-piperidinoethyl-2-nitrobenzimidazole]	Yes

Let us move to another entry and its Convulsions in mice at LD50 doses.
Reported Convulsions in mice at LD50 doses, compound O=[N+]([O-])c1nc2ccccc2n1CC[N+]1([O-])CCCCC1 [A] : ____
None

###

experiment: In vitro cytotoxicity (2 hour exposure); type: cell-based; conditions: chinese hamster, v-79-753 b cells, at 1mM, read-out: In-vitro Cytotoxicity in cells: inhibition
What cytotoxicity at 2 h, 1000 µM was measured for each of the following?
One number for each entry, in %.

Structure notation	cytotoxicity at 2 h, 1000 µM / %
O=[N+]([O-])c1nccn1CCN1CCCCC1	70

Let us move to another entry and its cytotoxicity at 2 h, 1000 µM.
Reported cytotoxicity at 2 h, 1000 µM, molecule O=[N+]([O-])c1nc2ccccc2n1CCN1CCCCC1 : ____
50

###

What MNTC at 2 h was measured for each of the following?
Assay: In vitro cytotoxicity (2 hour exposure)
Assay type: cell-based
Details: chinese hamster, v-79-753 b cells, read-out: In-vitro Cytotoxicity in cells: Nontoxic up to (concentration)
Description: Asynchronous monolayer cultures of Chinese hamster cells line V-79-753 B were employed in all the experiments. The monolayers were derived from exponentially-growing cultures. Methods of culturing and handling have been reported earlier by Cooke et al, Rad. Res. 65, 152 (1976). […] Cultures were incubated for 6 days at 37° C. in an atmosphere of 5% CO2; the resulting colonies were fixed in absolute ethanol, stained with methylene blue and counted. […]

Structure notation	MNTC at 2 h
O=[N+]([O-])c1nccn1CC[N+]1([O-])CCCCC1	≥ 20 mM

Let us move to another entry and its MNTC at 2 h.
Reported MNTC at 2 h, molecule O=[N+]([O-])c1nc2ccccc2n1CC[N+]1([O-])CCCCC1 : ____
≥ 10 mM
